tested on: SYO-1 complex spheroid growth, percent test/control; assay: Anticancer human tumor SYO-1 cell line growth inhibition [Asc]; conditions: second compound 10 µM; first compound 0.01 µM; active compounds read low;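 further: compound exposure lasted 7 days after spheroids grew 3 days; 100% = DMSO vehicle control viability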
Known viability, T/C of a selection of compounds

In: Return viability, T/C for the following compound: CNC(C)C(=O)NC1CN(S(=O)(=O)c2cccc(S(=O)(=O)N3CCC4CCC(C(=O)NC(c5ccccc5)c5ccccc5)N4C(=O)C(NC(=O)C(C)NC)C3)c2)CCC2CCC(C(=O)NC(c3ccccc3)c3ccccc3)N2C1=O (stereo not drawn) + Cc1c(S(C)(=O)=O)c(-c2cc(F)cc(N3CCN(c4ccc(NS(=O)(=O)c5ccc(NC(CCN6CCC(C(=O)OCCCP(=O)(O)O)CC6)CSc6ccccc6)c(S(=O)(=O)C(F)(F)F)c5)cc4)CC3)c2)c(-c2ccc(Cl)cc2)n1C(C)C
Out: 83.9%

In: Return viability, T/C for the following compound: CCN1CCN(Cc2ccc(Nc3ncc(F)c(-c4cc(F)c5nc(C)n(C(C)C)c5c4)n3)nc2)CC1 + Cc1c(S(C)(=O)=O)c(-c2cc(F)cc(N3CCN(c4ccc(NS(=O)(=O)c5ccc(NC(CCN6CCC(C(=O)OCCCP(=O)(O)O)CC6)CSc6ccccc6)c(S(=O)(=O)C(F)(F)F)c5)cc4)CC3)c2)c(-c2ccc(Cl)cc2)n1C(C)C
Out: 82.5%

Next:
In: Return viability, T/C for the following compound: Cn1ncnc1[C@H]1c2n[nH]c(=O)c3cc(F)cc(c23)N[C@@H]1c1ccc(F)cc1 + Cc1c(S(C)(=O)=O)c(-c2cc(F)cc(N3CCN(c4ccc(NS(=O)(=O)c5ccc(NC(CCN6CCC(C(=O)OCCCP(=O)(O)O)CC6)CSc6ccccc6)c(S(=O)(=O)C(F)(F)F)c5)cc4)CC3)c2)c(-c2ccc(Cl)cc2)n1C(C)C
Out: 16.4%

* * *

system: SYO-1 complex spheroid growth, percent test/control; test: Anticancer human tumor SYO-1 cell line growth inhibition [Asc]; details: second compound 0.0949 µM; first compound 0.316 µM; active compounds read low;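 further: compound exposure lasted 7 days after spheroids grew 3 days; 100% = DMSO vehicle control viability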
recorded.endpoint: viability, T/C (%)
Numeric only. Scale: %

Solved entries (count: 7):
In: State viability, T/C (SYO-1 complex spheroid growth, percent test/control) of CNC(C)C(=O)NC1CN(S(=O)(=O)c2cccc(S(=O)(=O)N3CCC4CCC(C(=O)NC(c5ccccc5)c5ccccc5)N4C(=O)C(NC(=O)C(C)NC)C3)c2)CCC2CCC(C(=O)NC(c3ccccc3)c3ccccc3)N2C1=O (stereo not drawn) + CCN1C(C(=O)NC23CCC(C(=O)O)(CC2)CC3)C(c2cccc(Cl)c2F)C2(C(=O)Nc3cc(Cl)ccc32)C12CCCCC2 .
Out: 81.2

In: State viability, T/C (SYO-1 complex spheroid growth, percent test/control) of C=CC(=O)N1CCN(c2nc(=O)n(-c3c(C)ccnc3C(C)C)c3nc(-c4c(O)cccc4F)c(F)cc23)C(C)C1 (stereo not drawn) + CCN1C(C(=O)NC23CCC(C(=O)O)(CC2)CC3)C(c2cccc(Cl)c2F)C2(C(=O)Nc3cc(Cl)ccc32)C12CCCCC2 .
Out: 76.7

In: State viability, T/C (SYO-1 complex spheroid growth, percent test/control) of C=C(F)C(=O)N1CCN(c2nc(OCC3CCCN3C)nc3c2CCN(c2cccc4cccc(Cl)c24)C3)CC1CC#N (stereo not drawn) + CCN1C(C(=O)NC23CCC(C(=O)O)(CC2)CC3)C(c2cccc(Cl)c2F)C2(C(=O)Nc3cc(Cl)ccc32)C12CCCCC2 .
Out: 83.8

In: State viability, T/C (SYO-1 complex spheroid growth, percent test/control) of O=C(c1ccc(F)c(F)c1Nc1ccc(I)cc1F)N1CC(O)([C@@H]2CCCCN2)C1 + CCN1C(C(=O)NC23CCC(C(=O)O)(CC2)CC3)C(c2cccc(Cl)c2F)C2(C(=O)Nc3cc(Cl)ccc32)C12CCCCC2 .
Out: 93.5

In: State viability, T/C (SYO-1 complex spheroid growth, percent test/control) of O=C(c1cc(Cc2n[nH]c(=O)c3ccccc23)ccc1F)N1CCN(C(=O)C2CC2)CC1 + CCN1C(C(=O)NC23CCC(C(=O)O)(CC2)CC3)C(c2cccc(Cl)c2F)C2(C(=O)Nc3cc(Cl)ccc32)C12CCCCC2 .
Out: 40.9

In: State viability, T/C (SYO-1 complex spheroid growth, percent test/control) of COc1c(OCCCN2CCOCC2)ccc2c3n(c(=NC(=O)c4cnc(N)nc4)nc12)CCN3 + CCN1C(C(=O)NC23CCC(C(=O)O)(CC2)CC3)C(c2cccc(Cl)c2F)C2(C(=O)Nc3cc(Cl)ccc32)C12CCCCC2 .
Out: 32.2

In: State viability, T/C (SYO-1 complex spheroid growth, percent test/control) of C#Cc1c(F)ccc2cc(O)cc(-c3ncc4c(N5CC6CCC(C5)N6)nc(OCC56CCCN5CC(F)C6)nc4c3F)c12 (stereo not drawn) + CCN1C(C(=O)NC23CCC(C(=O)O)(CC2)CC3)C(c2cccc(Cl)c2F)C2(C(=O)Nc3cc(Cl)ccc32)C12CCCCC2 .
Out: 88.3

Attention now shifts to the item below.
In: State viability, T/C (SYO-1 complex spheroid growth, percent test/control) of CCN1CCN(Cc2ccc(Nc3ncc(F)c(-c4cc(F)c5nc(C)n(C(C)C)c5c4)n3)nc2)CC1 + CCN1C(C(=O)NC23CCC(C(=O)O)(CC2)CC3)C(c2cccc(Cl)c2F)C2(C(=O)Nc3cc(Cl)ccc32)C12CCCCC2 .
Out: 63

* * *

system: SYO-1 complex spheroid growth, percent test/control; assay: Anticancer human tumor SYO-1 cell line growth inhibition [Asc]; conditions: second compound 0.0316 µM; first compound 0.3 µM; active = viability on the fitted dose curve at most 10% of control; inactive = the rest;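 further: compound exposure lasted 7 days after spheroids grew 3 days; 100% = DMSO vehicle control viability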
Please reply with one of these outcomes: Y = active, N = inactive

Solved cases below.
In: Could you kindly confirm the outcome this assay logged for CCN1C(C(=O)NC23CCC(C(=O)O)(CC2)CC3)C(c2cccc(Cl)c2F)C2(C(=O)Nc3cc(Cl)ccc32)C12CCCCC2 (stereo not drawn) + Cc1c(S(C)(=O)=O)c(-c2cc(F)cc(N3CCN(c4ccc(NS(=O)(=O)c5ccc(NC(CCN6CCC(C(=O)OCCCP(=O)(O)O)CC6)CSc6ccccc6)c(S(=O)(=O)C(F)(F)F)c5)cc4)CC3)c2)c(-c2ccc(Cl)cc2)n1C(C)C ?
Out: N

In: Could you kindly confirm the outcome this assay logged for NC(=O)C(=Cn1cnc(-c2cc(C(F)(F)F)cc(C(F)(F)F)c2)n1)c1cncnc1 + Cc1c(S(C)(=O)=O)c(-c2cc(F)cc(N3CCN(c4ccc(NS(=O)(=O)c5ccc(NC(CCN6CCC(C(=O)OCCCP(=O)(O)O)CC6)CSc6ccccc6)c(S(=O)(=O)C(F)(F)F)c5)cc4)CC3)c2)c(-c2ccc(Cl)cc2)n1C(C)C ?
Out: Y

Read the next record carefully.
In: Could you kindly confirm the outcome this assay logged for Cc1nc(N2CCC3(CC2)COC(C)C3N)c(CO)nc1Sc1ccnc(N)c1Cl (stereo not drawn) + CNC(C)C(=O)NC1CN(S(=O)(=O)c2cccc(S(=O)(=O)N3CCC4CCC(C(=O)NC(c5ccccc5)c5ccccc5)N4C(=O)C(NC(=O)C(C)NC)C3)c2)CCC2CCC(C(=O)NC(c3ccccc3)c3ccccc3)N2C1=O ?
Out: N

* * *

tested on: SYO-1 complex spheroid growth, percent test/control; experiment: Anticancer human tumor SYO-1 cell line growth inhibition [Asc]; details: second compound 1 µM; first compound 0.1 µM; active compounds read low;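 further: compound exposure lasted 7 days after spheroids grew 3 days; 100% = DMSO vehicle control viability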
recorded.endpoint: viability, T/C (%)
Numeric only. Scale: %

Solved entries (count: 2):
In: Return viability, T/C for the following molecule: O=C(c1cc(Cc2n[nH]c(=O)c3ccccc23)ccc1F)N1CCN(C(=O)C2CC2)CC1 + CNC(C)C(=O)NC1CN(S(=O)(=O)c2cccc(S(=O)(=O)N3CCC4CCC(C(=O)NC(c5ccccc5)c5ccccc5)N4C(=O)C(NC(=O)C(C)NC)C3)c2)CCC2CCC(C(=O)NC(c3ccccc3)c3ccccc3)N2C1=O
Out: 102

In: Return viability, T/C for the following molecule: Cn1ncnc1[C@H]1c2n[nH]c(=O)c3cc(F)cc(c23)N[C@@H]1c1ccc(F)cc1 + CNC(C)C(=O)NC1CN(S(=O)(=O)c2cccc(S(=O)(=O)N3CCC4CCC(C(=O)NC(c5ccccc5)c5ccccc5)N4C(=O)C(NC(=O)C(C)NC)C3)c2)CCC2CCC(C(=O)NC(c3ccccc3)c3ccccc3)N2C1=O
Out: 85.7

Next:
In: Return viability, T/C for the following molecule: Cn1ncnc1[C@H]1c2n[nH]c(=O)c3cc(F)cc(c23)N[C@@H]1c1ccc(F)cc1 + Cc1c(S(C)(=O)=O)c(-c2cc(F)cc(N3CCN(c4ccc(NS(=O)(=O)c5ccc(NC(CCN6CCC(C(=O)OCCCP(=O)(O)O)CC6)CSc6ccccc6)c(S(=O)(=O)C(F)(F)F)c5)cc4)CC3)c2)c(-c2ccc(Cl)cc2)n1C(C)C
Out: 3.35
